# experimental system: SCRIB_3, Q14160
# Sequence (Q14160 999-1103): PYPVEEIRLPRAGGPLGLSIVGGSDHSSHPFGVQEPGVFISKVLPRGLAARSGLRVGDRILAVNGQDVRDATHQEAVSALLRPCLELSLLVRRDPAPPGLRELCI
# procedure text: holdup assay
# Parameters: key: below the threshold = too weak to quantify, mostly under pKd 3.1 to 4
# assay setup: plain residues with an end cap or a label only (N-terminal biotin on a linker: ttds)
readout label: pKd

binder	readout label	obs value
SGSRPSATVV [HPV73-E6, Q82005]	pKd	below the threshold
EVVHTPETSV [SLC16A3, O15427]	pKd	4.58
PRVKPQRSKV [PPP1R13L, Q8WUF5]	pKd	below the threshold
KKYVDAETSL [SLC4A7, Q9Y6M7]	pKd	5.09
EMDRRPATVV [PLCB4, Q15147]	pKd	4.1

// returns reported pKd for input RLPKIKETTV [FRMPD4, Q14CM0]
4.88

Next binder up: NDPAWDETNL [ARHGEF7, Q14155;Q14155-1]
5.08

Next binder up: DKDPHSETAL [TMIGD1, Q6UXZ0]
5.01

Next binder up: SKPTRRETEV [HPV35-E6, P27228]
4.89

Next binder up: RHTTSTETAV [HPV30-E6, P36809]
5.02

Next binder up: PVRVCEETSL [OTULIN, Q96BN8]
5.64

Next binder up: SSLQSLETSV [ATP2B4, P23634]
5.11
